Each entry below carries its recorded GI50.
# Test system: SK-OV-3 ovarian
# method_summary: NCI tumour cell line growth inhibition, 384-well format
measure_name: GI50

1) Cc1ccc(S(=O)(=O)Oc2ccc3sc4cccc(NCCN(C)C)c4c(=O)c3c2)cc1
1.64 µM
2) NC(N)=Nc1ccc(-n2nc(C(F)(F)F)cc2-c2ccc3c(ccc4ccccc43)c2)cc1
1.62 µM
3) CCN1C(=O)N(c2c(F)c(OC)cc(OC)c2F)Cc2cnc3[nH]c(CN4CCOCC4)cc3c21
2.62 µM
4) Cn1c(=O)c(F)c(Nc2ccc(I)cc2F)c2c(=O)n(C[C@@H](O)CO)cnc21
3.34 µM
